Kp uu at 5 min listing for selected compounds.
# Protocol Notes: Ratio of unbound drug concentration in brain to plasma in Swiss mouse at 2.5 mg/kg, iv measured at 5 mins post-dose
# Type: ADME, organism-based
# Protocol Conditions: read-out: K(p,uu,brain)
Write the number on its own, no unit after it.

>>> reported_value("N#Cc1ccc([C@@H]2[C@@H]3CC[C@@H](C[C@@H]3O)N2S(=O)(=O)c2ccc(Cl)cc2)cn1")
0.68

Here's the next entry for you.
What value of measured Kp uu at 5 min is listed for "O=S(=O)(c1ccc(Cl)cc1)N1[C@H]2CC[C@@H]([C@H]1c1ccc(C(F)(F)F)cc1)[C@@H](O)C2" ?
1.97

====

concentration at 5 min listing for selected compounds.
# Protocol Notes: Drug concentration in Swiss mouse brain at 2.5 mg/kg, iv measured at 5 mins post-dose
# Type: ADME, organism-based
# Protocol Conditions: read-out: Ct
# unit: ng/g | format: bare number

>>> reported_value("O=S(=O)(c1ccc(Cl)cc1)N1[C@H]2CC[C@@H]([C@H]1c1ccc(C(F)(F)F)cc1)[C@@H](O)C2")
3620

Here's the next entry for you.
What value of measured concentration at 5 min is listed for "N#Cc1ccc([C@@H]2[C@@H]3CC[C@@H](C[C@@H]3O)N2S(=O)(=O)c2ccc(Cl)cc2)cn1" ?
363

====

pIC50 listing for selected compounds.
# Protocol Notes: Inhibition of human PSEN1/APH1B expressed in MEF cells with Psen1/2 double knockout/Aph1ABC triple knockout by ELISA
# Assay type: cell-based
As a rule, pIC50 stands for the negative log10 of the concentration, concentration in M.

Example compounds with recorded pIC50:
>>> reported_value("CC(=O)Nc1ccc([C@@H]2[C@@H]3CC[C@@H](CC3=O)N2S(=O)(=O)c2ccc(Cl)cc2)cc1 (racemic)")
6.15
>>> reported_value("N#Cc1ccc([C@@H]2[C@@H]3CC[C@@H](CC3=O)N2S(=O)(=O)c2ccc(Cl)cc2)c(F)c1 (racemic)")
6.88
>>> reported_value("O=S(=O)(c1ccc(Cl)cc1)N1[C@H]2CC[C@H]([C@H](O)C2)[C@H]1c1cc(F)ccc1F (racemic)")
6.37

Here's the next entry for you.
What value of measured pIC50 is listed for "O=C1NCCCC[C@H]1N(Cc1ccc(Br)cc1)S(=O)(=O)c1ccc(Cl)cc1" ?
7.61

====

# Protocol Notes: Inhibition of human PSEN1/APH1B expressed in MEF cells with Psen1/2 double knockout/Aph1ABC triple knockout by ELISA
# Type: cell-based
pIC50: −log10 of the molar value.
If the reported pIC50 equals or exceeds 7, assign rule met. If not, assign rule not met.

Consider the following illustrative entries.
>>> assigned_category("CCOC(=O)Nc1ccc([C@@H]2[C@@H]3CC[C@@H](CC3=O)N2S(=O)(=O)c2ccc(Cl)cc2)cc1 (racemic)")
"rule not met"
>>> assigned_category("N#Cc1ccc(S(=O)(=O)N2[C@H]3CC[C@H](C(=O)C3)[C@H]2c2ccc(C(F)(F)F)cc2)cc1 (racemic)")
"rule not met"
>>> assigned_category("O=C1C[C@@H]2CC[C@H]1[C@@H](c1ccccc1Cl)N2S(=O)(=O)c1ccc(Cl)cc1 (racemic)")
"rule not met"

Does pIC50 meet or surpass 7 for Cc1ccc(S(=O)(=O)N2[C@H]3CC[C@H](C(=O)C3)[C@H]2c2ccc(C(F)(F)F)cc2)cc1 (racemic) ?
rule met

Item: COCC(=O)Nc1ccc([C@@H]2[C@@H]3CC[C@@H](CC3=O)N2S(=O)(=O)c2ccc(Cl)cc2)cc1 (racemic)
rule not met

Item: O=S(=O)(c1ccc(Cl)cc1)N1[C@H]2CC[C@@H]([C@H]1c1ccc(C(F)(F)F)nc1)[C@@H](O)C2 (racemic)
rule met

Item: N#Cc1ccc([C@@H]2[C@@H]3CC[C@@H](C[C@@H]3O)N2S(=O)(=O)c2ccc(Cl)s2)cn1 (racemic)
rule met

Item: O=S(=O)(c1ccc(Cl)cc1)N1[C@H]2CC[C@@H]([C@H]1c1ccc(F)c(F)c1)[C@@H](O)C2 (racemic)
rule met

Item: CC(=O)Nc1ccc([C@@H]2[C@@H]3CC[C@@H](C[C@@H]3O)N2S(=O)(=O)c2ccc(Cl)s2)cc1 (racemic)
rule met

Item: N#Cc1ccc([C@@H]2[C@@H]3CC[C@@H](C[C@@H]3O)N2S(=O)(=O)c2ccc(Cl)cc2)cc1 (racemic)
rule met

Item: "N#Cc1ccc([C@@H]2[C@@H]3CC[C@@H](C[C@H]3O)N2S(=O)(=O)c2ccc(Cl)cc2)cn1"
rule not met

Item: O=S(=O)(c1ccc(Cl)cc1)N1[C@H]2CC[C@@H]([C@H]1c1ccccc1)[C@@H](O)C2 (racemic)
rule met

Item: O=S(=O)(c1ccc(Cl)s1)N1[C@H]2CC[C@@H]([C@H]1c1ccc(Cl)cc1)[C@@H](O)C2 (racemic)
rule met

Item: O=S(=O)(c1ccc(Cl)cc1)N1[C@H]2CC[C@@H]([C@H]1c1ccc(C(F)(F)F)cc1)[C@@H](O)C2 (racemic)
rule met

Values were extracted from ChEMBL document CHEMBL5625242.
